Origin of the recorded values: ChEMBL document CHEMBL4689842

Hi there, I'd appreciate the recorded Population Hoechst High Intensity Objects (%) for every entry that follows.
System: Fibroblast
Experiment: Multiplex assay against human fibroblast
Assay type: toxicity, cell-based
Conditions: 48 h, 1 µM, compound concentration 1 uM, replicate 2
Expressed in %, but write only the number.

For the record CCCSc1nc(N[C@@H]2C[C@H]2c2ccc(F)c(F)c2)c2nnn([C@@H]3C[C@H](OCCO)[C@@H](O)[C@H]3O)c2n1 [TICAGRELOR] , what value of Population Hoechst High Intensity Objects (%) is listed for Fibroblast? 10

Let us now turn to Cc1cccc(CN2CCN(C(c3ccccc3)c3ccc(Cl)cc3)CC2)c1.Cl.Cl (stereo not drawn) 9

Let us now turn to O=C(c1cc2c(cc1F)OC(c1ccc(F)cc1)(c1ccc(Cl)cc1Cl)O2)N1CCOCC1 (stereo not drawn) 12

Let us now turn to Cc1ccc2c(c1)c1c(n2CCc2ccc(C)nc2)CCN(C)C1 [LATREPIRDINE] 44

Let us now turn to COc1ccc(-c2ccc3ncc4c(c3c2)n(-c2ccc(N3CCNCC3)c(C(F)(F)F)c2)c(=O)n4C)cn1.O=C(O)/C=C\C(=O)O [BGT-226] 27

Let us now turn to CC(C)c1noc(N2CCC(COc3ccc(-c4ccc(S(C)(=O)=O)cc4)nc3)CC2)n1 [GSK-1292263] 8

Let us now turn to "CNC(=O)Nc1ccc(-c2nc(N3CC4CCC(C3)O4)c3cnn(C4CCC5(CC4)OCCO5)c3n2)cc1" 12

Let us now turn to "CCc1ccc(OCc2ccccc2C(=O)Nc2ccc3nc(C)cc(N)c3c2)cc1.Cl" 16

###

Test system: Fibroblast
Assay: Incucyte cell viability with human fibroblast; note: filed as whole numbers so only -1 and 0 and 1 occur
Format: toxicity, cell-based
Details: 6 h, 10 µM, compound concentration 10 uM, replicate number 2, timepoint 6 hours
Hi there, I'd appreciate the recorded Growth Rate for every entry that follows.
I only need the number, thanks.

For the record "C[C@H](c1ccc(F)cc1)N(Cc1cccc(C(=O)O)c1)C(=O)c1cnc2ccccc2c1" , what value of Growth Rate is listed for Fibroblast? 0

Let us now turn to "COc1ccc(S(=O)(=O)c2cc(OC)ccc2S(=O)(=O)c2ccc([C@H](C)NS(C)(=O)=O)cc2)cc1" 0

Let us now turn to "O=C(Nc1ccc(Oc2ccc(F)cc2)cc1)N1CCc2ncccc2[C@H]1c1ccc(F)cc1" 0

###

System: Fibroblast
Test: Multiplex assay against human fibroblast
Assay type: toxicity, cell-based
Conditions: 12 h, 1 µM, compound concentration 1 uM, replicate 2
Hi there, I'd appreciate the recorded Total Cell Count for every entry that follows.
I only need the number, thanks.

For the molecule shown here, "Cc1nc(N2CC[C@H](O)C2)ncc1-c1cc(C(F)(F)F)cc2[nH]ncc12" , give the reported Total Cell Count. 70

Let us now turn to "CC(C)CC(=O)Nc1[nH]nc2c1CN(C(=O)C1CCN(C)CC1)C2(C)C" 54

Let us now turn to CCc1nn(CCCN2CCN(c3cccc(Cl)c3)CC2)c(=O)n1CCOc1ccccc1.Cl [NEFAZODONE HYDROCHLORIDE] 68

Let us now turn to "C=CC(=O)Nc1cccc(Oc2nc(Nc3ccc(N4CCN(C)CC4)cc3OC)ncc2Cl)c1" 92

Let us now turn to "CNC(=O)Nc1ccc(-c2nc(N3CC4CCC(C3)O4)c3cnn(C4CCC5(CC4)OCCO5)c3n2)cc1" 54

Let us now turn to "CN1CCN(Cc2ccc(Nc3ncc(Cl)c(Nc4ccccc4S(=O)(=O)N(C)C)n3)cc2)CC1" 65

Let us now turn to CC1=C(C(=O)Nc2cc3cn[nH]c3cc2F)C(c2ccc(C(F)(F)F)cc2)CC(=O)N1 (stereo not given) 76

Let us now turn to "CCc1ccc(OCc2ccccc2C(=O)Nc2ccc3nc(C)cc(N)c3c2)cc1.Cl" 68

Let us now turn to "C=CC(=O)Nc1cccc(Sc2nc(Nc3ccc(N4CCN(C)CC4)cc3)ncc2Cl)c1" 63

Let us now turn to O=C(c1cc2c(cc1F)OC(c1ccc(F)cc1)(c1ccc(Cl)cc1Cl)O2)N1CCOCC1 (stereo not given) 78

Let us now turn to COc1cc2ncn(-c3cc(OCc4ccccc4C(F)(F)F)c(C(N)=O)s3)c2cc1OC [GW843682X] 83

Let us now turn to "O=c1cc(N2CCOCC2)oc2c(-c3cccc4c3sc3ccccc34)cccc12" 79

Let us now turn to "Cc1c[nH]c2nccc(Oc3c(F)cc(Nc4cc(Cl)nc(N)n4)cc3F)c12" 68

Let us now turn to Cc1ccc2c(c1)c1c(n2CCc2ccc(C)nc2)CCN(C)C1 [LATREPIRDINE] 61

Let us now turn to "CC(C)Oc1ccccc1C(=O)Nc1ccccc1C(=O)Nc1cccc(S(=O)(=O)C(F)(F)F)c1" 62
